Values from ChEMBL document CHEMBL2176988

# system: Neuronal acetylcholine receptor; alpha3/beta4 (Homo sapiens, UniProt P30926+P32297)
# Sequence (P30926 whole entry): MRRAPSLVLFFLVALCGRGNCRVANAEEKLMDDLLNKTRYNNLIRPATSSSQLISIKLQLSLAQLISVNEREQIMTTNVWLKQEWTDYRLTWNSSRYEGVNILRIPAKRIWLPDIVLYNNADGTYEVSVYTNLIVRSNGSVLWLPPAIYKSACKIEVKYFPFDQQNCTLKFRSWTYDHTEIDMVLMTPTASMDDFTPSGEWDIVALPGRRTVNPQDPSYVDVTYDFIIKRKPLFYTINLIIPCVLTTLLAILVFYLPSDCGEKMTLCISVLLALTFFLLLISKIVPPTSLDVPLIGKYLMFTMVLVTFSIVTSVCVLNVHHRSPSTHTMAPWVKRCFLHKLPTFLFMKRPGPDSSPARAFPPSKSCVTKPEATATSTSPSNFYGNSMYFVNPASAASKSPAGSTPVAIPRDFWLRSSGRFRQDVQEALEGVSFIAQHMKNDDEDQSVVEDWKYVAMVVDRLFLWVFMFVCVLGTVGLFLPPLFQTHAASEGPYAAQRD
# Sequence (P32297 whole entry): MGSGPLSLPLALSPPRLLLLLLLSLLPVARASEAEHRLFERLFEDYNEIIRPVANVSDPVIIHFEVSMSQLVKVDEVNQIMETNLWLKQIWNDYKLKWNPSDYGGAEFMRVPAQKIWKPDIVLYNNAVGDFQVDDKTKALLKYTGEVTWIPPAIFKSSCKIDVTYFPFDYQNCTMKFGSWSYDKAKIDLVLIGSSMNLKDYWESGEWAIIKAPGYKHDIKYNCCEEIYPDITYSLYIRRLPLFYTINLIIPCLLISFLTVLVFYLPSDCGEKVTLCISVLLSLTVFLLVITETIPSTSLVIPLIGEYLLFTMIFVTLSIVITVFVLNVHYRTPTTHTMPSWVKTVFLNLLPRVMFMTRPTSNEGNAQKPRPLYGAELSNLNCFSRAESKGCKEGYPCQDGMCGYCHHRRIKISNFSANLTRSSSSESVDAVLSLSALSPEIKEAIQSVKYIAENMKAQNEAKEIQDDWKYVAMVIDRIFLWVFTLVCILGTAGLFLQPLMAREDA
# test name: Agonist activity at human alpha3beta4 nAChR expressed in CHO cells assessed as calcium flux by calcium4-based FLIPR assay relative to nicotine
# Type: functional, cell-based
// bucketize Emax: band A (below 20%), band B (20% to below 60%), band C (60% or more)

Example entries and their recorded answers appear below.
Cc1ncoc1C(=O)N1CC2CNCC2C1 (stereo unspecified) : band B
O=C(c1ccno1)N1CC2CNCC2C1 (stereo unspecified) : band A
O=C(C1CC1)N1C[C@@H]2CN[C@H](C2)C1 : band C
O=C(c1ccc(Br)o1)N1CC2CNCC(C2)C1 : band B

QUERY: Where would O=C(c1ccc(F)o1)N1CC2CNCC2C1 (stereo unspecified) land among the classes by reported Emax?
RESULT: band B

QUERY: Where would O=C(c1ccco1)N1CC2CNCC(C2)C1 land among the classes by reported Emax?
RESULT: band B

QUERY: Where would O=C(c1cnco1)N1CC2CNCC2C1 (stereo unspecified) land among the classes by reported Emax?
RESULT: band A

QUERY: Where would O=C(c1ccc(Cl)o1)N1CC2CNCC2C1 (stereo unspecified) [AZD1446] land among the classes by reported Emax?
RESULT: band A

QUERY: Where would O=C(c1cc(Cl)co1)N1CC2CNCC2C1 (stereo unspecified) land among the classes by reported Emax?
RESULT: band B

QUERY: Where would O=C(c1ccco1)N1C[C@H]2CN[C@@H](C2)C1 land among the classes by reported Emax?
RESULT: band C

QUERY: Where would O=C(c1ccncc1)N1CC2CNCC(C2)C1 land among the classes by reported Emax?
RESULT: band A

----------
# system: Neuronal acetylcholine receptor; alpha3/beta4 (Homo sapiens, UniProt P30926+P32297)
# test name: Agonist activity at human alpha3beta4 nAChR expressed in CHO cells assessed as calcium flux by calcium4-based FLIPR assay relative to nicotine
# Assay type: functional, cell-based
The entries below come with measured Emax values attached.
Quick note: give the figure in %, leave out the unit.

These recorded examples may help you get a feel for the data.
O=C(c1occc1Br)N1CC2CNCC2C1 (stereo unspecified) : 83
COc1ccc(C(=O)N2CC3CNCC3C2)cc1 (stereo unspecified) : 22
Cc1ccoc1C(=O)N1CC2CNCC2C1 (stereo unspecified) : 40

Please look at the following compound next.
QUERY: Form field: Emax recorded for O=C(c1cc(F)co1)N1CC2CNCC(C2)C1 with Neuronal acetylcholine receptor; alpha3/beta4 (Homo sapiens, UniProt P30926+P32297) (enter value)
RESULT: 93

----------
# system: Neuronal acetylcholine receptor subunit alpha-7 (Homo sapiens, UniProt P36544)
# Sequence (P36544 whole entry): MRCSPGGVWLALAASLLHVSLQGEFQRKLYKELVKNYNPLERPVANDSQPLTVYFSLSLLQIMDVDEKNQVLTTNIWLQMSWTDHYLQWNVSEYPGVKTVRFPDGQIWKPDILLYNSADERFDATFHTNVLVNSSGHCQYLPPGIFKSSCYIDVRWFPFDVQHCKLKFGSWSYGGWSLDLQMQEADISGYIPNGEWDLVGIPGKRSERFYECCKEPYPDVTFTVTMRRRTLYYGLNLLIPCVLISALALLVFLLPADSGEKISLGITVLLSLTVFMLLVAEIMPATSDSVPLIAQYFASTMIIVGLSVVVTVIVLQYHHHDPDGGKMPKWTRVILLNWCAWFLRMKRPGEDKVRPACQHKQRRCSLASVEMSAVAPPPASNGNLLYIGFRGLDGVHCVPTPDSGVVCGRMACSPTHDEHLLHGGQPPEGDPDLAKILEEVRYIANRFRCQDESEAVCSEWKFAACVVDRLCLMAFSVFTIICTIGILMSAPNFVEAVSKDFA
# test name: Displacement of [3H]epibatidine from human alpha7 nAChR expressed in CHO cells after 2 hrs by liquid scintillation counting
pKi: −log10 of the molar value.
The entries below come with measured pKi values attached.

O=C(c1occc1Br)N1CC2CNCC(C2)C1 : < 5.00

QUERY: Quick check: pKi of O=C(c1ccc(Br)o1)N1CC2CNCC2C1 (stereo not drawn) ?
RESULT: < 5.00

QUERY: Quick check: pKi of O=C(c1cc(Cl)co1)N1CC2CNCC(C2)C1 ?
RESULT: < 5.00

QUERY: Quick check: pKi of Cc1ccoc1C(=O)N1CC2CNCC(C2)C1 ?
RESULT: < 5.00

QUERY: Quick check: pKi of N#Cc1coc(C(=O)N2CC3CNCC(C3)C2)c1 ?
RESULT: < 5.00

QUERY: Quick check: pKi of N#Cc1ccc(C(=O)N2CC3CNCC(C3)C2)o1 ?
RESULT: < 5.00

QUERY: Quick check: pKi of N#Cc1ccoc1C(=O)N1CC2CNCC(C2)C1 ?
RESULT: < 5.00

QUERY: Quick check: pKi of O=C(c1occc1F)N1CC2CNCC2C1 (stereo not drawn) ?
RESULT: < 5.00

----------
# system: Neuronal acetylcholine receptor; alpha3/beta4 (Homo sapiens, UniProt P30926+P32297)
# test name: Displacement of [3H]epibatidine from human alpha3beta4 nAChR expressed in CHO cells after 2 hrs by liquid scintillation counting
# Format: cell-based
experimental endpoint: pKi
Keep it numeric: pKi is minus log10 of the concentration in mol/L.

These recorded examples may help you get a feel for the data.
O=C(c1cc(Br)co1)N1CC2CNCC(C2)C1 : 5.03
O=C(c1ccc(Oc2ccccc2)cc1)N1CC2CNCC2C1 (stereo not drawn) : 4.85
O=C(c1occc1Br)N1CC2CNCC2C1 (stereo not drawn) : 5.42
O=C(c1ccc(F)o1)N1CC2CNCC2C1 (stereo not drawn) : 4.92
O=C(c1cc(F)co1)N1CC2CNCC2C1 (stereo not drawn) : 5.08
O=C(c1ccccc1)N1CC2CNCC2C1 (stereo not drawn) : 4.82

Please look at the following molecule next.
QUERY: Quick check: pKi of O=C(c1ccc(F)o1)N1CC2CNCC(C2)C1 ?
RESULT: 5.96

----------
# system: Neuronal acetylcholine receptor; alpha4/beta2 (Rattus norvegicus, UniProt P09483+P12390)
# Sequence (P09483 whole entry): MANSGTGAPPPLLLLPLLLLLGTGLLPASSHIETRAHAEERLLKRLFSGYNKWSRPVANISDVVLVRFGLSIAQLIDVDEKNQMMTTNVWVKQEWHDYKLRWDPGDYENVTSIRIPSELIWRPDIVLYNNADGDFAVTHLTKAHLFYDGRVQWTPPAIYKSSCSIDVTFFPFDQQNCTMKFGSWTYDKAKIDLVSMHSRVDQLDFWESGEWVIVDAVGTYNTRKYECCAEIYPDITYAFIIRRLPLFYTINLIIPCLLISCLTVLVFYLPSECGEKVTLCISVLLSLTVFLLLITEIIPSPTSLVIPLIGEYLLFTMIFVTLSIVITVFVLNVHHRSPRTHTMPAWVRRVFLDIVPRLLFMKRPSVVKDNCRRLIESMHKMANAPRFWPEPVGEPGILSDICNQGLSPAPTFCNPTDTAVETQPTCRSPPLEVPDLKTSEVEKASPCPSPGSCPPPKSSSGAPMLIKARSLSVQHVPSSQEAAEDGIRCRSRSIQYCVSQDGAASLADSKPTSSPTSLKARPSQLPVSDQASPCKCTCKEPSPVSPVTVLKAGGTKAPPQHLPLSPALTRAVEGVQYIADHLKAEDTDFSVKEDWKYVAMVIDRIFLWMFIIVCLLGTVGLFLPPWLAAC
# Sequence (P12390 whole entry): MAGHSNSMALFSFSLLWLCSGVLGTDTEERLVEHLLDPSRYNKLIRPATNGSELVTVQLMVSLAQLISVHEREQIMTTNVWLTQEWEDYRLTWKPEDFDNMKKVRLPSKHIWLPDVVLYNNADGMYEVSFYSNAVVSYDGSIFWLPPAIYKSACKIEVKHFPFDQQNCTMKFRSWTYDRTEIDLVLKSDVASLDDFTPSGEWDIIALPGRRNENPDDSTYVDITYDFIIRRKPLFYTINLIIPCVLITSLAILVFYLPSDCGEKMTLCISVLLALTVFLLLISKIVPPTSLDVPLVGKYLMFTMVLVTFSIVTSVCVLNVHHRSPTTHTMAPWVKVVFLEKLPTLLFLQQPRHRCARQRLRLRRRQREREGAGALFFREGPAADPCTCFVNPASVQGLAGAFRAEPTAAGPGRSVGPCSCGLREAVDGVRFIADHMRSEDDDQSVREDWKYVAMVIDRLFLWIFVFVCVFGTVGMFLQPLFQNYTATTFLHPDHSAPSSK
# test name: Displacement of [3H]epibatidine from alpha4beta2 nAChR in Sprague-Dawley rat cortex after 2 hrs by liquid scintillation counting
experimental endpoint: Ki (nM)
Quick note: give the figure in nM, leave out the unit.

O=C(c1occc1Br)N1CC2CNCC(C2)C1 : 130

QUERY: Form field: Ki recorded for O=C(c1cccnc1)N1CC2CNCC2C1 (stereo unspecified) with Neuronal acetylcholine receptor; alpha4/beta2 (Rattus norvegicus, UniProt P09483+P12390) (enter value)
RESULT: 160

QUERY: Form field: Ki recorded for N#Cc1coc(C(=O)N2CC3CNCC3C2)c1 (stereo unspecified) with Neuronal acetylcholine receptor; alpha4/beta2 (Rattus norvegicus, UniProt P09483+P12390) (enter value)
RESULT: 120

QUERY: Form field: Ki recorded for N#Cc1ccoc1C(=O)N1CC2CNCC2C1 (stereo unspecified) with Neuronal acetylcholine receptor; alpha4/beta2 (Rattus norvegicus, UniProt P09483+P12390) (enter value)
RESULT: 68

QUERY: Form field: Ki recorded for O=C(c1cc(Br)co1)N1CC2CNCC2C1 (stereo unspecified) with Neuronal acetylcholine receptor; alpha4/beta2 (Rattus norvegicus, UniProt P09483+P12390) (enter value)
RESULT: 91

QUERY: Form field: Ki recorded for O=C(c1cc(Cl)co1)N1CC2CNCC2C1 (stereo unspecified) with Neuronal acetylcholine receptor; alpha4/beta2 (Rattus norvegicus, UniProt P09483+P12390) (enter value)
RESULT: 65

----------
# system: Neuronal acetylcholine receptor; alpha3/beta4 (Homo sapiens, UniProt P30926+P32297)
# test name: Displacement of [3H]epibatidine from human alpha3beta4 nAChR expressed in CHO cells after 2 hrs by liquid scintillation counting
# Format: cell-based
The entries below come with measured Ki values attached.

These recorded examples may help you get a feel for the data.
O=C(c1ccc(Cl)o1)N1CC2CNCC2C1 (configuration not stated) : > 10 µM
Cc1ccc(C(=O)N2CC3CNCC(C3)C2)o1 : > 10 µM
O=C(c1occc1F)N1CC2CNCC2C1 (configuration not stated) : 6.5 µM
O=C(C1CC1)N1CC2CNCC2C1 (configuration not stated) : 0.67 µM
O=C(c1ccc(F)o1)N1C[C@@H]2CN[C@H](C2)C1 : 0.9 µM

QUERY: Quick check: Ki of O=C(c1ccncc1)N1CC2CNCC(C2)C1 ?
RESULT: > 10 µM

QUERY: Quick check: Ki of O=C(c1ccco1)N1C[C@@H]2CN[C@H](C2)C1 ?
RESULT: 0.45 µM

----------
# system: Neuronal acetylcholine receptor; alpha3/beta4 (Homo sapiens, UniProt P30926+P32297)
# test name: Agonist activity at human alpha3beta4 nAChR expressed in CHO cells assessed as calcium flux by calcium4-based FLIPR assay
pEC50: −log10 of the molar value.
pEC50 vs 5: at or above is rule met, below is rule not met.

Example entries and their recorded answers appear below.
O=C(c1cc(Cl)co1)N1CC2CNCC(C2)C1 : rule not met
Cc1ccoc1C(=O)N1CC2CNCC2C1 (configuration not stated) : rule not met
O=C(C1CC1)N1CC2CNCC2C1 (configuration not stated) : rule met
CCOc1cncc(/C=C/CCNC)c1 : rule not met
O=C(c1ccc(F)o1)N1C[C@H]2CN[C@@H](C2)C1 : rule met
O=C(c1ccc(Oc2ccccc2)cc1)N1CC2CNCC2C1 (configuration not stated) : rule not met

QUERY: # bool: pEC50 of O=C(c1ccc(Cl)o1)N1CC2CNCC2C1 (configuration not stated) [AZD1446] >= 5
RESULT: rule not met

QUERY: # bool: pEC50 of O=C(c1ccco1)N1C[C@H]2CN[C@@H](C2)C1 >= 5
RESULT: rule not met

QUERY: # bool: pEC50 of O=C(c1cc(F)co1)N1CC2CNCC2C1 (configuration not stated) >= 5
RESULT: rule not met

QUERY: # bool: pEC50 of N#Cc1ccoc1C(=O)N1CC2CNCC(C2)C1 >= 5
RESULT: rule not met

QUERY: # bool: pEC50 of O=C(C1CC1)N1CC2CNCC(C2)C1 >= 5
RESULT: rule met
